conditions: 308.15 K; 101.33 kPa; Liquid
Quantity measured: mass density (kg/m3)
Record the value in kg/m3, omitting the unit from your answer.

FC(F)(F)C(F)(F)C(F)(F)C(F)(F)C(F)(F)C(F)(F)C(F)(F)C(F)(F)Br : 1890.8
FC(F)C(F)(F)C(F)(F)C(F)(F)C(F)(F)C(F)(F)C(F)(F)C(F)(F)F : 1725.8
Fc1c(F)c(F)c(F)c(F)c1F : 1583.3

Proceed to the following item.
Dear colleague, I am looking for the recorded mass density of the following compound: Fc1c(F)c(F)c(C(F)(F)F)c(F)c1F
1640.2

###

settings: 293.15 K; 101.33 kPa; Liquid
Overview of recorded mass density for various compounds
Record the value in kg/m3, omitting the unit from your answer.

Some entries whose results are on file:
FC1(F)C(F)(F)C(F)(F)C2(F)C(F)(F)C(F)(F)C(F)(F)C(F)(F)C2(F)C1(F)F (configuration not stated) : 1941.7
FC(F)(F)C(F)(F)C(F)(F)C(F)(F)C(F)(F)C(F)(F)C(F)(F)C(F)(F)Br : 1926.7
FC(F)C(F)(F)C(F)(F)C(F)(F)C(F)(F)C(F)(F)C(F)(F)C(F)(F)F : 1761.8
FC(F)(F)C(F)(F)C(F)(F)C(F)(F)C(F)(F)C(F)(F)F : 1691

Dear colleague, I am looking for the recorded mass density of the following compound: FC(F)(F)C(F)(F)C(F)(F)C(F)(F)C(F)(F)C(F)(F)C(F)(F)C(F)(F)C(F)(F)F
1800.1

Follow-up entry: Fc1c(F)c(F)c(C(F)(F)F)c(F)c1F
1672.2

Follow-up entry: Fc1c(F)c(F)c(F)c(F)c1F
1617.5

###

Overview of recorded mass density for various compounds
details: 313.15 K; 101.33 kPa; Liquid
Record the value in kg/m3, omitting the unit from your answer.

FC1(F)C(F)(F)C(F)(F)C2(F)C(F)(F)C(F)(F)C(F)(F)C(F)(F)C2(F)C1(F)F (configuration not stated) [perfluorodecalin] : 1896.6

Dear colleague, I am looking for the recorded mass density of the following compound: Fc1c(F)c(F)c(C(F)(F)F)c(F)c1F [octafluorotoluene]
1629.4

Follow-up entry: FC(F)(F)C(F)(F)C(F)(F)C(F)(F)C(F)(F)C(F)(F)F [perfluorohexane]
1630.2

Follow-up entry: Fc1c(F)c(F)c(F)c(F)c1F [hexafluorobenzene]
1571.8

Follow-up entry: FC(F)(F)C(F)(F)C(F)(F)C(F)(F)C(F)(F)C(F)(F)C(F)(F)C(F)(F)C(F)(F)F [eicosafluorononane]
1750.9

Follow-up entry: FC(F)(F)C(F)(F)C(F)(F)C(F)(F)C(F)(F)C(F)(F)C(F)(F)C(F)(F)Br [1-bromoperfluorooctane]
1878.6

Follow-up entry: FC(F)C(F)(F)C(F)(F)C(F)(F)C(F)(F)C(F)(F)C(F)(F)C(F)(F)F [1H-perfluorooctane]
1713.6

###

conditions: 288.15 K; 101.33 kPa; Liquid
Overview of recorded mass density for various compounds
Record the value in kg/m3, omitting the unit from your answer.

FC(F)(F)C(F)(F)C(F)(F)C(F)(F)C(F)(F)C(F)(F)F : 1705.6
Fc1c(F)c(F)c(F)c(F)c1F : 1628.9
FC1(F)C(F)(F)C(F)(F)C2(F)C(F)(F)C(F)(F)C(F)(F)C(F)(F)C2(F)C1(F)F (configuration not stated) : 1952.8
FC(F)(F)C(F)(F)C(F)(F)C(F)(F)C(F)(F)C(F)(F)C(F)(F)C(F)(F)Br : 1938.6
FC(F)(F)C(F)(F)C(F)(F)C(F)(F)C(F)(F)C(F)(F)C(F)(F)C(F)(F)C(F)(F)F : 1812.2

Dear colleague, I am looking for the recorded mass density of the following compound: FC(F)C(F)(F)C(F)(F)C(F)(F)C(F)(F)C(F)(F)C(F)(F)C(F)(F)F
1773.6

Follow-up entry: Fc1c(F)c(F)c(C(F)(F)F)c(F)c1F
1682.8

Values were extracted from the NIST ThermoML archive (doi:10.1021/je050056e).
